# target.under.test: E. coli GroEL/ES (Escherichia coli, UniProt P0A6F5)
# Sequence (P0A6F5 whole entry, looked up): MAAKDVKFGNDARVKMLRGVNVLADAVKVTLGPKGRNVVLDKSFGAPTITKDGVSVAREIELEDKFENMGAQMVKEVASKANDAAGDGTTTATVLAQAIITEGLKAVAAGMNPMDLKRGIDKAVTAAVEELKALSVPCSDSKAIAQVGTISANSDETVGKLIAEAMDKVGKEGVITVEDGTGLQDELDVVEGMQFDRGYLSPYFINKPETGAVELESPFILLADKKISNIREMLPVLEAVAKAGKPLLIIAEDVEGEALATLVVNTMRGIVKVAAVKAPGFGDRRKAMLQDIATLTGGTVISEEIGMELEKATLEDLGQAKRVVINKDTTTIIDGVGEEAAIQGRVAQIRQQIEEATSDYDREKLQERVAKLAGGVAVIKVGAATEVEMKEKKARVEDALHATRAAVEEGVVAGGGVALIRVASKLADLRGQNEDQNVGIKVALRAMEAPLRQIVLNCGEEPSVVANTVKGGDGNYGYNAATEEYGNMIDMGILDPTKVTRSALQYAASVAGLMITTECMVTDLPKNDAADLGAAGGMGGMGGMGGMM
# test.name: Inhibition of Escherichia coli GroEL expressed in Escherichia coli DH5alpha/Escherichia coli GroES expressed in Escherichia coli BL21 (DE3) assessed as reduction in GroEL/GroES-mediated denatured MDH refolding after 20 to 40 mins by spectrometric analysis
pIC50: −log10 of the molar value.
endpoint: pIC50

Prompt: Tell me the measured pIC50 of COc1c(Br)cccc1C(=O)Nc1ccccc1 , please.
Response: < 4.00

Prompt: Tell me the measured pIC50 of O=C(Nc1ccccc1)c1cccc(Br)c1O , please.
Response: < 4.00

Prompt: Tell me the measured pIC50 of O=C(Nc1cccc(Cl)c1)c1ccccc1 , please.
Response: < 4.00

Prompt: Tell me the measured pIC50 of O=C(Nc1ccccc1)c1cc(Br)cc(Br)c1 , please.
Response: < 4.00

Prompt: Tell me the measured pIC50 of O=C(Nc1cccc(Cl)c1)c1cc(Br)ccc1O , please.
Response: < 4.00

Prompt: Tell me the measured pIC50 of O=C(Nc1cccc(Cl)c1)c1cc(Br)cc(Br)c1O , please.
Response: 4.62

Prompt: Tell me the measured pIC50 of O=C(Nc1ccc(Oc2ccc(Cl)cc2)c(Cl)c1)c1cc(I)cc(I)c1O [RAFOXANIDE] , please.
Response: 5.37

###

Would you kindly list EC50 for each of these compounds?
# Test system: Staphylococcus aureus
# test.name: Antibacterial activity against Staphylococcus aureus ATCC 25923 after 6 to 8 hrs by bacterial proliferation assay
# Assay type: functional, organism-based

Prompt: Tell me the measured EC50 of O=C(Nc1ccccc1)c1cc(Br)cc(Br)c1 , please.
Response: > 100 µM

Prompt: Tell me the measured EC50 of COc1ccccc1C(=O)Nc1ccc(Sc2nc3ccccc3s2)cc1 , please.
Response: > 100 µM

Prompt: Tell me the measured EC50 of COc1c(Br)cccc1C(=O)Nc1cccc(Cl)c1 , please.
Response: > 100 µM
